- assayed target: Estrogen Receptor (ERα) in MCF-7 cells (Homo sapiens (Human))
- Sequence (P03372 whole entry): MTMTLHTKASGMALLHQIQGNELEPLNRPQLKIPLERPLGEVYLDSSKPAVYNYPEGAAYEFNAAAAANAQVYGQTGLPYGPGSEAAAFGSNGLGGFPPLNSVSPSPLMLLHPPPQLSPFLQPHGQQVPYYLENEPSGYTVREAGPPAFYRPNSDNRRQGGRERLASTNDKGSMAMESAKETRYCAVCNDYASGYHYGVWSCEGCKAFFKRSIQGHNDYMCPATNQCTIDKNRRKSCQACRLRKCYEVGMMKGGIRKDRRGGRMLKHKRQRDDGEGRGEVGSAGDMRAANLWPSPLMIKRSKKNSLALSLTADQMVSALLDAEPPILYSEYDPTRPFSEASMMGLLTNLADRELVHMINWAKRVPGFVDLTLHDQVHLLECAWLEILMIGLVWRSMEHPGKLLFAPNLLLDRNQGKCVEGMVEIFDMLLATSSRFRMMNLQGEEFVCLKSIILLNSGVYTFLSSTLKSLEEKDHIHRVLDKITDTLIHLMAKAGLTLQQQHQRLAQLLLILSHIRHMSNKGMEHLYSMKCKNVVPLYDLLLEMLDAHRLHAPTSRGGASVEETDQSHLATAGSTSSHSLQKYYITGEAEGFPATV
- method summary: MCF-7 ER down-regulation assay (immuno-fluorescence)
- Format: cell-based
- protocol conditions: maximum downregulation

molecule: C[C@@H]1Cc2c([nH]c3ccccc23)[C@@H](c2c(F)ccc(OCCN(C)CCCF)c2F)N1CC1(F)COC1 [Example 154]
assayed target: Estrogen Receptor (ERα) in MCF-7 cells (Homo sapiens (Human))
% downregulation (in brackets): 79%
//
molecule: COc1ccc(OCCNCCCF)c(F)c1[C@@H]1c2[nH]c3ccccc3c2C[C@@H](C)N1CC1(F)CC1 [Example 83]
assayed target: Estrogen Receptor (ERα) in MCF-7 cells (Homo sapiens (Human))
% downregulation (in brackets): 90%
//
molecule: C[C@@H]1Cc2c([nH]c3ccccc23)[C@@H](c2c(F)ccc(OCCN(C)CCCF)c2C(F)F)N1C[C@H](C)C(=O)O [Example 148]
assayed target: Estrogen Receptor (ERα) in MCF-7 cells (Homo sapiens (Human))
% downregulation (in brackets): 68%
